Numbers sourced from patent US20080064689A1.

Structures can show the parent of a compound that is named as a salt.
Measurement label: melting point

These solved cases illustrate the format of a correct answer.
For record O=C1O[C@@H](Cn2ccnn2)CN1c1ccc(-c2ccc(C3=NO[C@H](CN4CCCC4)C3)nc2)c(F)c1 (as salt: hydrochloride) the listed melting point is 260 to 263 °C

For record Cl.O=C1O[C@@H](Cn2ccnn2)CN1c1ccc(-c2ccc(C3=NO[C@H](CN4CCOCC4)C3)nc2)c(F)c1 the listed melting point is 242 °C

For record CC(C)(C)OC(=O)NC[C@@H]1CC(c2ccc(-c3ccc(N4C[C@H](Cn5ccnn5)OC4=O)cc3F)cn2)=NO1 the listed melting point is 228 to 230 °C

Next:
For record O=C1O[C@@H](Cn2ccnn2)CN1c1ccc(-c2ccc(C3=NO[C@H](CN4CCCCC4)C3)nc2)c(F)c1 (as salt: hydrochloride) the listed melting point is 211 to 215 °C

For record O=C1O[C@@H](Cn2ccnn2)CN1c1ccc(-c2ccc(C3=NO[C@@H](CN4CCOCC4)C3)nc2)c(F)c1 the listed melting point is 239 to 245 °C

For record O=C1O[C@@H](Cn2ccnn2)CN1c1ccc(-c2ccc(C3=NO[C@H](CN4CCS(=O)(=O)CC4)C3)nc2)c(F)c1 the listed melting point is 200 to 203 °C

For record O=C1O[C@@H](Cn2ccnn2)CN1c1ccc(-c2ccc(C3=NO[C@H](CN4CCOCC4)C3)nc2)c(F)c1 (as salt: sulfonic acid salt) [Example 3c] the listed melting point is 165 to 168 °C

====

# Test target: MAO-A (Homo sapiens, UniProt P21397)
# Sequence (P21397 whole entry): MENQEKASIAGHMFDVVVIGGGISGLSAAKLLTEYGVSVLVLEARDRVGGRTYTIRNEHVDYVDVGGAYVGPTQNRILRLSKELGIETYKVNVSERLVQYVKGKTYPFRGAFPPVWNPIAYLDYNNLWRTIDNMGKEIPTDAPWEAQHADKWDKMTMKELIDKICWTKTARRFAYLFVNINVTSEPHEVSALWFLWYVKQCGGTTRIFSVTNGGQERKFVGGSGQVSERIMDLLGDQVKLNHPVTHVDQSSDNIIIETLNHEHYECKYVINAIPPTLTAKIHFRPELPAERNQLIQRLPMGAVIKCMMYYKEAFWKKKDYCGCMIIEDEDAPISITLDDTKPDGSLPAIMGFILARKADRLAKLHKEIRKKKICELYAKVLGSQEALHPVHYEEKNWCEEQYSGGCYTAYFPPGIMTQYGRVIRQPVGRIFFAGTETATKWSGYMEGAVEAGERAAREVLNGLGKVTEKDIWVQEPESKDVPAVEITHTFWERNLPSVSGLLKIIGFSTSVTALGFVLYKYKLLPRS
Measurement label: pKi
Reminder that pKi is minus the log10 of a molar concentration.

Short answer on MAO-A (Homo sapiens, UniProt P21397) for NC[C@@H]1CC(c2ccc(-c3ccc(N4C[C@H](Cn5ccnn5)OC4=O)cc3F)cn2)=NO1 [Reference Example 16] , pKi: 6.46

====

Here, each record is paired with measured melting point data.
Structures can show the parent of a compound that is named as a salt.

For record CN(C)C[C@@H]1CC(c2ccc(-c3ccc(N4C[C@H](Cn5ccnn5)OC4=O)cc3F)cn2)=NO1 the listed melting point is 212 °C

For record O=C1O[C@@H](Cn2ccnn2)CN1c1ccc(-c2ccc(C3=NO[C@H](CNCCO)C3)nc2)c(F)c1 the listed melting point is 190 °C

For record CN(CC(=O)O)CC(=O)NC[C@@H]1CC(c2ccc(-c3ccc(N4C[C@H](Cn5ccnn5)OC4=O)cc3F)cn2)=NO1 the listed melting point is 185 to 188 °C

For record O=C1O[C@@H](Cn2ccnn2)CN1c1ccc(-c2ccc(C3=NO[C@H](CN4CCSCC4)C3)nc2)c(F)c1 the listed melting point is 222 to 225 °C

For record NC[C@@H]1CC(c2ccc(-c3ccc(N4C[C@H](Cn5ccnn5)OC4=O)cc3F)cn2)=NO1 [Reference Example 16] the listed melting point is 119 to 122 °C

For record O=C1O[C@@H](Cn2ccnn2)CN1c1ccc(-c2ccc(C3=NO[C@H](CN4CC[S+]([O-])CC4)C3)nc2)c(F)c1 the listed melting point is 218 to 220 °C

Next:
For record CNC[C@@H]1CC(c2ccc(-c3ccc(N4C[C@H](Cn5ccnn5)OC4=O)cc3F)cn2)=NO1 the listed melting point is 215 °C

For record CN(C)CC(=O)N(C)C[C@@H]1CC(c2ccc(-c3ccc(N4C[C@H](Cn5ccnn5)OC4=O)cc3F)cn2)=NO1 (as salt: hydrochloride) the listed melting point is 122 to 132 °C

For record CN(CC(=O)O)CC(=O)N(C)C[C@@H]1CC(c2ccc(-c3ccc(N4C[C@H](Cn5ccnn5)OC4=O)cc3F)cn2)=NO1 the listed melting point is 135 to 145 °C

For record CN(CC(=O)O)C[C@@H]1CC(c2ccc(-c3ccc(N4C[C@H](Cn5ccnn5)OC4=O)cc3F)cn2)=NO1 the listed melting point is 212 to 218 °C

For record CN(C)CC(=O)NC[C@@H]1CC(c2ccc(-c3ccc(N4C[C@H](Cn5ccnn5)OC4=O)cc3F)cn2)=NO1 (as salt: hydrochloride) the listed melting point is 202 to 204 °C

For record O=C1O[C@@H](Cn2ccnn2)CN1c1ccc(-c2ccc(C3=NO[C@H](CN4CCOCC4)C3)nc2)c(F)c1 [Example 3] the listed melting point is 230 °C

For record O=C1O[C@@H](Cn2ccnn2)CN1c1ccc(-c2ccc(C3=NO[C@H](Cn4ccnc4)C3)nc2)c(F)c1 the listed melting point is 239 to 242 °C
